Entries with reported pIC50 on Norepinephrine transporter (Rattus norvegicus, UniProt Q9WTR4)
Sequence (Q9WTR4 whole entry): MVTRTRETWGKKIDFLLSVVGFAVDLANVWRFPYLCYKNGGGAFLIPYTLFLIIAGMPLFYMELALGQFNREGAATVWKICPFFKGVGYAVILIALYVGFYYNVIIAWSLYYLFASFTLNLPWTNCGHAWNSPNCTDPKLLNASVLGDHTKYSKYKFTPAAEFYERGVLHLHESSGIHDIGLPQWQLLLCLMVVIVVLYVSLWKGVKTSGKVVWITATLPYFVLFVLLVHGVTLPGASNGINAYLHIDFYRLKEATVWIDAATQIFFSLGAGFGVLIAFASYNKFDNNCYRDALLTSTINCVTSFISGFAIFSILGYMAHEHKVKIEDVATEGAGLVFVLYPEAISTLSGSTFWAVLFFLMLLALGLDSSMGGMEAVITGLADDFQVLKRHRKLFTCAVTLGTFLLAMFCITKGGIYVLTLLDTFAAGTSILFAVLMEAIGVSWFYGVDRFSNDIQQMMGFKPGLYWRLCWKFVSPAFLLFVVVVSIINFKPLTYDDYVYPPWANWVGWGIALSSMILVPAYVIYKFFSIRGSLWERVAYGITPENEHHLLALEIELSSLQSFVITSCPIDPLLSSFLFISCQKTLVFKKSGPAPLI
One number for each entry, as −log10 of the molar value.

molecule: CCCOC(=O)C1C(OC(=O)c2ccccc2)CC2CCC1N2C (centres undefined)
pIC50: 5.21
--
molecule: CN1C2CCC1C(C(=O)OC1CC1)C(c1ccc(Cl)cc1)C2 (centres undefined)
pIC50: 6.63

Answer for every listed entry: what is its pIC50? The entries follow.
1. CCOC(=O)C1C(OC(=O)c2ccccc2)CC2CCC1N2C (centres undefined)
2. Cc1ccc(C2CC3CCC(C2C(N)=O)N3C)cc1 (centres undefined)
3. CN1[C@H]2CC[C@@H]1[C@@H](C(=O)N1CCCC1)[C@@H](c1ccc(I)cc1)C2
4. CC(C)OC(=O)C1C(c2ccccc2)CC2CCC1N2C (centres undefined)

[reply]
1. 5.00
2. 5.36
3. 6.00
4. 4.49

All figures here come from ChEMBL document CHEMBL1128444.
